Recorded values, source the array DNA melting data of Ke et al. (doi:10.1101/2024.01.08.574731).

Assay protocol: folding enthalpy; higher = less favourable; fluorescence melt of hairpins on a sequencing array, two-state fit
Run parameters: sodium 0.088 M
Decide by folding enthalpy: equal to or exceeding -30 kcal/mol means true (1), less means false (0).

Input sequence	Assigned label
GTCGGAGGAAACTCTGAC (((.(((....))).)))	false (0)
GCGTAACTACGC ((((....))))	true (1)
GGTTTGCGAAAGCAGACC (((.(((....))).)))	false (0)
GAATGCGAAAGCAGGTTC ((((((....)))..)))	true (1)
GTCTTCGAAAGAAAGGAC ((((((....)))..)))	true (1)
GGTGCCGGAAACGGTACC (((.(((....))).)))	false (0)

Does folding enthalpy meet or surpass -30 kcal/mol for GCCCTGGCGAAAGCCGGC (((..(((....)))))) ?
true (1)

Does folding enthalpy meet or surpass -30 kcal/mol for GATCCAAATCTGGATC ((((((....)))))) ?
false (0)
